B1: Caulobacter ParB omega fusion; a variant is named by its letters at X, in order, B8GW30 (parent)
chain: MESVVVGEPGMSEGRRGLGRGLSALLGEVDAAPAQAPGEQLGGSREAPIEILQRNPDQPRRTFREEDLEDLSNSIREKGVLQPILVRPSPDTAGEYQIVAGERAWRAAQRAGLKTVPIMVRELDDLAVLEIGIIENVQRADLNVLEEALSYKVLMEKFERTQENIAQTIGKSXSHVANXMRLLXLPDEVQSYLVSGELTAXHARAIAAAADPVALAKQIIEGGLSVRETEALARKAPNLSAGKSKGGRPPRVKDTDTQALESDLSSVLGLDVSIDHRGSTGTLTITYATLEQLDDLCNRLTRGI

variants of: B1; experiment: one-hybrid fitness for binding parS DNA (scaled: cognate 1, non-cognate 0); higher = stronger binding; settings: with parS DNA site
Over roughly 81,000 sequences, “one-hybrid fitness for binding parS DNA” has its median near -0.17; the highest 2% begin near 0.51. The entries come from a sample that favours the highest values as a whole.
Each entry below carries its reported one-hybrid fitness for binding parS DNA.
resultType: one-hybrid fitness for binding parS DNA

> print(dat)
    variantname                               resulttype  result
 1         RQYG  one-hybrid fitness for binding parS DNA   0.994
 2         GTTA  one-hybrid fitness for binding parS DNA   ≤ 0.2
 3         RQNF  one-hybrid fitness for binding parS DNA   0.216
 4         CALA  one-hybrid fitness for binding parS DNA   ≤ 0.2
 5         RTFT  one-hybrid fitness for binding parS DNA   0.911
 6         RHAD  one-hybrid fitness for binding parS DNA   ≤ 0.2
 7         RTFQ  one-hybrid fitness for binding parS DNA    0.26
 8         RHFG  one-hybrid fitness for binding parS DNA   0.876
 9         AYAS  one-hybrid fitness for binding parS DNA   ≤ 0.2
10         RQLG  one-hybrid fitness for binding parS DNA   0.982
11         RQLH  one-hybrid fitness for binding parS DNA   ≤ 0.2
12         RQYD  one-hybrid fitness for binding parS DNA   ≤ 0.2
13         LILG  one-hybrid fitness for binding parS DNA   ≤ 0.2
14         YPPA  one-hybrid fitness for binding parS DNA   ≤ 0.2
15         RHFF  one-hybrid fitness for binding parS DNA   ≤ 0.2
16         RQQN  one-hybrid fitness for binding parS DNA   0.469
17         RTAQ  one-hybrid fitness for binding parS DNA   ≤ 0.2
18         RQNG  one-hybrid fitness for binding parS DNA    1.01
19         RHAG  one-hybrid fitness for binding parS DNA   0.969
20         RQLD  one-hybrid fitness for binding parS DNA   ≤ 0.2
21         RHAH  one-hybrid fitness for binding parS DNA   0.202
22         RTAT  one-hybrid fitness for binding parS DNA   0.918
